# Assay Text: Solubility estimated by solvent aliquot addition at ambient temperature
# Type: physicochemical
# Recorded Conditions: organic solvent or mixture, thermodynamic from solid, DMAc

Compound: Cc1cc(Nc2ncnn3ccc(C4CCN(C(=O)/C=C/CN(C)C)CC4)c23)ccc1Oc1ccn2ncnc2c1 [Compound 1 Form A]
solubility: > 110 mg/mL

* * *

# Assay Text: Solubility estimated by solvent aliquot addition at ambient temperature
# Assay type: physicochemical
# Recorded Conditions: organic solvent or mixture, thermodynamic from solid, 50:50 DCM/toluene v/v

Compound: Cc1cc(Nc2ncnn3ccc(C4CCN(C(=O)/C=C/CN(C)C)CC4)c23)ccc1Oc1ccn2ncnc2c1 [Compound 1 Form A]
solubility: 50 mg/mL
